Known EC50 of a selection of compounds
target: JAK1 (Homo sapiens); construct: JAK1 (aa 850-1154) and TYK2 (aa 871-1187) are expressed with an N-terminally fused GST-tag; GST (N); assay: JAK1 kinase assay (HTRF, inhibition of phosphorylation of a synthetic peptide); conditions: catalytic domain aa 850-1154, GST-tag; 7 μM ATP (Km); read-out: JAK1 kinase inhibitory activity (EC50)
Sequence (P23458 850-1154): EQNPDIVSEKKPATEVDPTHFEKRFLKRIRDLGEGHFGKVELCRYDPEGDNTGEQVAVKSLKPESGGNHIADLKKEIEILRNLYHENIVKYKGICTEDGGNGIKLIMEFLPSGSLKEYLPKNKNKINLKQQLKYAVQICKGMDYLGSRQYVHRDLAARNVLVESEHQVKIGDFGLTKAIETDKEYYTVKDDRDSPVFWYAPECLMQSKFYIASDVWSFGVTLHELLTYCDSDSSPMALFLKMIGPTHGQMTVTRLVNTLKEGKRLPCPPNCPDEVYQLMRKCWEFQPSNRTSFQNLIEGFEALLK

Q) Recorded EC50 for Cn1cncc1C(=O)N1CCCN(c2ncnc3[nH]ccc23)CC12CC2 [Example 145] , please?
A) 100 to 1000 nM

Q) Recorded EC50 for N#Cc1ccc(C(=O)N2CCCN(c3ncnc4[nH]ccc34)CC23CC3)s1 [Example 120] , please?
A) < 100 nM

Q) Recorded EC50 for O=C(c1c[nH]nn1)N1CCCN(c2ncnc3[nH]ccc23)CC12CC2 [Example 205] , please?
A) 100 to 1000 nM

Q) Recorded EC50 for O=C(c1csnn1)N1CCCN(c2ncnc3[nH]ccc23)CC12CC2 [Example 142] , please?
A) < 100 nM

Q) Recorded EC50 for O=C(c1cc2ccccc2s1)N1CCN(c2ncnc3[nH]ccc23)CCC12CC2 [Example 46] , please?
A) 100 to 1000 nM

Q) Recorded EC50 for NS(=O)(=O)c1ccc(C(=O)N2CCN(c3ncnc4[nH]ccc34)CC3(CC3)C2)cc1Cl [Example 32] , please?
A) < 100 nM

Attribution: patent US9586961B2
